- tested_target: Adenosine receptor A1 (Bos taurus)
- Sequence (P28190 whole entry): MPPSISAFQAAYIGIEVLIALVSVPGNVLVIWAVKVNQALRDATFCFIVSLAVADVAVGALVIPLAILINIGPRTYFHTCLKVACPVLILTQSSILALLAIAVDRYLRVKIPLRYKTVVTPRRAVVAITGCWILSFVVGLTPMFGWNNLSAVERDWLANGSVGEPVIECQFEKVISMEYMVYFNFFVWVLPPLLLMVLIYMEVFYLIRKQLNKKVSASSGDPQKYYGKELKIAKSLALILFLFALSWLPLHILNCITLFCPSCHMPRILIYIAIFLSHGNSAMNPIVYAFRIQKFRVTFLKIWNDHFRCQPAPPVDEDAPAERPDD
- assay_notes: Displacement of [3H]DPCPX from adenosine A1 receptor in bovine brain cortical membranes
- Assay type: cell membranes
Field: Ki. Provide a value for each of the compounds that follow.
Give bare numbers, in nM.

> print(dat)
                                 molecule  outcome.measure  quantitative.readout
1       CN(C)c1ccc2c(O)cc(-c3ccccc3)nc2n1               Ki                  6.02
2          Oc1cc(-c2ccccc2)nc2nc(Cl)ccc12               Ki                  1.62
3  CC(=O)Nc1ccc(-c2cc(O)c3ccc(C)nc3n2)cc1               Ki                  1.67

Please state Ki for every compound in the list that follows.
1. CCCc1cc(O)c2ccc(C)nc2n1
2. Oc1cc(-c2ccccc2)nc2nc(Br)ccc12
3. Cc1ccc2c(NC3CCCCC3)cc(-c3ccccc3)nc2n1

1. 61.5
2. 1.6
3. 39

* * *

- assay_notes: Ratio of binding affinity against bovine adenosine A1 to that of A2 receptor
Classification field: class 1 = Ratio at or over 70; class 0 = Ratio under 70.

Observe how each entry below is paired with its result.
> print(dat)
                               molecule  class.name
1        Cc1ccc2c(O)cc(-c3ccccc3F)nc2n1     class 0
2  Oc1cc(-c2ccccc2)nc2nc(N3CCCCC3)ccc12     class 1
3      Cc1ccc2c(O)cc(-c3ccc(N)cc3)nc2n1     class 1
4         Oc1cc(-c2ccccc2)nc2nc(F)ccc12     class 0
5       CCOc1ccc2c(O)cc(-c3ccccc3)nc2n1     class 1

Evaluate "CCOc1ccc2c(=O)cc(-c3ccccc3)n(CC)c2n1" : Ratio at minimum 70? class 1

Evaluate "Cc1ccc2c(O)cc(-c3ccccc3)nc2n1" : Ratio at minimum 70? class 1

* * *

- tested_target: Adenosine receptor A1 (Bos taurus, UniProt P28190)
- Sequence (P28190 whole entry): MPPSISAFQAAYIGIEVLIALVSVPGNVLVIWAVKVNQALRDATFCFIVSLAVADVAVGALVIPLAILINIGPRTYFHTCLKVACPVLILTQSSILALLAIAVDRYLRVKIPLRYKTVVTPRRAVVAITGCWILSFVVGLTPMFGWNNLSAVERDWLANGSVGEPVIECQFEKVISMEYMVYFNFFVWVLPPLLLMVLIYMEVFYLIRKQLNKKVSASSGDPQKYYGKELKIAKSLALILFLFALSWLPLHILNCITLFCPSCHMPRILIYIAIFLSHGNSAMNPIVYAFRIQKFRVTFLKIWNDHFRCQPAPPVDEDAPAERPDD
- assay_notes: Binding affinity against adenosine A1 receptor in bovine cortical membranes using [3H]CHA as radioligand
- Format: cell membranes
outcome_measure: Ki (nM)
Numbers only, in nM.

Study these solved cases before continuing.
> print(dat)
                                   molecule                             tested.target  outcome.measure  quantitative.readout
1                   CCCc1cc(O)c2ccc(C)nc2n1  Adenosine receptor A1 (Bos taurus, UniProt P28190)               Ki                    48
2   CCCn1c(=O)c2[nH]c(C3CCCC3)nc2n(CCC)c1=O  Adenosine receptor A1 (Bos taurus, UniProt P28190)               Ki                  0.25
3          Cc1ccc2c(O)cc(-c3ccc(N)cc3)nc2n1  Adenosine receptor A1 (Bos taurus, UniProt P28190)               Ki                   6.8
4  Nc1nc2c(cnn2CCc2ccccc2)c2nc(-c3ccco3)nn12  Adenosine receptor A1 (Bos taurus, UniProt P28190)               Ki                   357
5      CCOc1ccc2c(=O)cc(-c3ccccc3)n(CC)c2n1  Adenosine receptor A1 (Bos taurus, UniProt P28190)               Ki                    48

Please state Ki for every molecule in the list that follows.
1. CCOc1ccc2c(OCC)cc(-c3ccccc3)nc2n1
2. CC(=O)Nc1ccc(-c2cc(O)c3ccc(C)nc3n2)cc1
3. CCOc1cc(-c2ccccc2)nc2nc(Br)ccc12

1. 290
2. 1
3. 50

Give the reported Ki for "Oc1cc(-c2ccccc2)nc2nc(N3CCOCC3)ccc12" (system: Adenosine receptor A1 (Bos taurus, UniProt P28190)). 160

* * *

- tested_target: Adenosine receptor A1 (Homo sapiens)
- Sequence (P30542 whole entry): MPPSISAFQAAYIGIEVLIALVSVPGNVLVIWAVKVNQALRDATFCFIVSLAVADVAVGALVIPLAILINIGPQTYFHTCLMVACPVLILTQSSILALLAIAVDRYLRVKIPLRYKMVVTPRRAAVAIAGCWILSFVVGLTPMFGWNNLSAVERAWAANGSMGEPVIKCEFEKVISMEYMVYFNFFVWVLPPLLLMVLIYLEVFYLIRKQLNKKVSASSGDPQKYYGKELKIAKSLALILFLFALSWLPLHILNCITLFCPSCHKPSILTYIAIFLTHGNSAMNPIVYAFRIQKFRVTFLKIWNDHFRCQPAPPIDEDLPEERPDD
- assay_notes: Binding affinity against adenosine A1 receptor in human cortical membranes using [3H]CHA as radioligand
- Type: cell membranes
pKi: −log10 of the molar value.
Field: pKi. Provide a value for each of the compounds that follow.

Study these solved cases before continuing.
> print(dat)
                                molecule  result
1         Cc1ccc2c(NN)cc(-c3ccccc3)nc2n1  < 5.00
2                     Cc1ccc2c(O)ccnc2n1  < 5.00
3  Oc1cc(-c2ccccc2)nc2nc(Oc3ccccc3)ccc12  < 5.00
4       COc1cc(-c2ccccc2)nc2c1ccc(=O)n2C  < 5.00
5                  Cc1cc(O)c2ccc(N)nc2n1  < 5.00
6          Nc1ccc2c(O)cc(-c3ccccc3)nc2n1    5.47
7  Cc1ccc2c(NC3CCCCC3)cc(-c3ccccc3)nc2n1    6.25
8      Cn1c(=O)ccc2c(O)cc(-c3ccccc3)nc21  < 5.00

Please state pKi for every compound in the list that follows.
1. Cc1ccc2ccc(-c3ccccc3)nc2n1
2. Cc1ccc2c(O)cc(-c3cccc([N+](=O)[O-])c3)nc2n1
3. Cc1ccc2c(N3CCNCC3)cc(-c3ccccc3)nc2n1
4. CSc1cc(-c2ccccc2)nc2nc(C)ccc12
5. CCOc1cc(-c2ccccc2)nc2c1ccc(=O)n2CC
6. Cc1ccc2c(O)cc(-c3ccc(F)cc3)nc2n1

< 5.00
5.66
< 5.00
< 5.00
< 5.00
5.41

Please state pKi for every compound in the list that follows.
1. CCOc1ccc2c(=O)cc(-c3ccccc3)n(CC)c2n1
2. Cc1ccc2c(O)cc(-c3ccccc3F)nc2n1
3. Oc1cc(-c2ccccc2)nc2nc(N3CCCCC3)ccc12
4. Oc1cc(-c2ccccc2)nc2nc(N3CCNCC3)ccc12
5. Cc1ccc2c(N=[N+]=[N-])cc(-c3ccccc3)nc2n1

6.03
6.31
5.12
< 5.00
< 5.00

Please state pKi for every compound in the list that follows.
1. CN(C)c1ccc2c(O)cc(-c3ccccc3)nc2n1
2. Cc1ccc2c(Cl)cc(-c3ccccc3)nc2n1
3. CCCc1cc(O)c2ccc(C)nc2n1
4. Cc1ccc2c(O)cc(-c3cccc(N)c3)nc2n1
5. CCCc1cc(O)c2ccc(N)nc2n1
6. Oc1cc(-c2ccccc2)nc2nc(N3CCOCC3)ccc12
7. COc1cc(-c2ccccc2)nc2nc(C)ccc12

1. 6.01
2. < 5.00
3. 5.82
4. 5.40
5. 5.39
6. < 5.00
7. < 5.00

* * *

Measured Ki on Adenosine receptor A2a (Homo sapiens) follows.
Sequence (P29274 whole entry): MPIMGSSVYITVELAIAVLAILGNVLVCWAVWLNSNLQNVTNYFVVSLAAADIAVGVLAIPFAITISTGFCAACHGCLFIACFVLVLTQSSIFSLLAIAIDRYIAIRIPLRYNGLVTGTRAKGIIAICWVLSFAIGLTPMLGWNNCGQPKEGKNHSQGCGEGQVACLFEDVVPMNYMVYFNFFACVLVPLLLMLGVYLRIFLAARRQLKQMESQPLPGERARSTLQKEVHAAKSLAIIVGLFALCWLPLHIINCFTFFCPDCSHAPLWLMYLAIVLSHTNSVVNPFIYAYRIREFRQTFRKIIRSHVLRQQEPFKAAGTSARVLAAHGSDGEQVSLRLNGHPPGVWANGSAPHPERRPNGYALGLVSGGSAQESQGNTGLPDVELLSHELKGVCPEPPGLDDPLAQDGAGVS

> print(dat)
                    molecule                          tested.target  outcome.measure   result
1  Cc1cc(O)c2ccc(=O)[nH]c2n1  Adenosine receptor A2a (Homo sapiens)               Ki  > 10 µM

Please state Ki for every molecule in the list that follows.
1. Cc1ccc2c(N)ccnc2n1
2. Oc1cc(-c2ccccc2)nc2nc(N3CCCCC3)ccc12
3. Oc1cc(-c2ccccc2)nc2nc(N3CCOCC3)ccc12

> 10 µM
> 10 µM
> 10 µM

* * *

Field: Ratio. Provide a value for each of the compounds that follow.
- assay_notes: Ratio of binding affinity against bovine adenosine A1 to that of A2 receptor

Study these solved cases before continuing.
> print(dat)
                               molecule  outcome.measure  result
1        CSc1cc(-c2ccccc2)nc2nc(C)ccc12            Ratio    > 26
2        Cc1ccc2c(Cl)cc(-c3ccccc3)nc2n1            Ratio    > 10
3     CCOc1ccc2c(OCC)cc(-c3ccccc3)nc2n1            Ratio    > 34
4  Oc1cc(-c2ccccc2)nc2nc(N3CCOCC3)ccc12            Ratio    > 63

// moving on: another record for Ratio
Dear colleague, I am looking for the recorded Ratio of the following compound: "Cc1ccc2c(O)ccnc2n1" > 1.4
